- System: MS2 coat protein
- protocol-description: apparent KD of MS2 coat protein; designed switch direction (-1 OFF switch, 1 ON switch): 1; higher = weaker reporter binding
- test-conditions: input ligand: none
observation-type: apparent KD of MS2 coat protein
Units required after the number.

**Q:** Would you mind telling me what apparent KD of MS2 coat protein value was observed for AACCCAAUGGAAGGAUAUGGCACCUUAUUGGUGCCAGAAGGUCCUAACAUGAGGAUCACCCAUGUGGGCCGGUCGAAAGACCGG [Fiskers NG1ss - 6] (Eterna round: R96, puzzle: Same State NG 1) ?
**A:** 656 nM

**Q:** Bench note: what apparent KD of MS2 coat protein did ACAUGAGACCAAGGAUAUUUUGUACCUACAUGUGACAUGAGGAUCACCCAUGUGGUAAGUAUGAGGGAGAAGGUGGAGAUAUGU [Equivalence 24 - Jieux - Same State NG 2] (Eterna round: R96, puzzle: Same State NG 2) show?
**A:** 73.7 nM

**Q:** Need apparent KD of MS2 coat protein of UGGUCUCACUUAGGAUAUUAGCACCGAAAGAGCUAAGAAGGAGGUGAAACUCUCACAUGAGGAUCACCCAUGUACACCCUAGGG [Eternabot solution 3] (Eterna round: R96, puzzle: Same State NG 1) , thanks.
**A:** 1080 nM

**Q:** Need apparent KD of MS2 coat protein, item AUGCCAAAACGAGGAUAUGGAGCCUUAUUGGCUCCAGAAGGUGUGACAUGAGGAUCACCCAUGUGGCAGUGGUCUAAUGACCAC [Eli NG1ss - 40] (Eterna round: R96, puzzle: Same State NG 1)
**A:** 133 nM

**Q:** Can you look up the measured apparent KD of MS2 coat protein of GAGUCAGAUCGAGGAUAUUUGUUAUGACGAUCCCACAUGAGGAUCACCCAUGUCCACGAUCCUCCAAAGAAGGUGAGGCUGGCG [Eternabot solution 32] (Eterna round: R96, puzzle: Same State NG 2) for me?
**A:** 88.2 nM

**Q:** Can you look up the measured apparent KD of MS2 coat protein of GUUAACUUGAGAGGAUAUGUAGAGGAUCACCCUACAGAAGGCUCUUUGGAGAGGAUAUGUAGAGGAUCACCCUACAGAAGGCUC [pwkr ssNG DX.6] (Eterna round: R96, puzzle: Same State NG 1) for me?
**A:** 25.9 nM

**Q:** Query (sequence): GUGGAGGGUUGAGGAUAUUGAAUACAUAUGUUUAACAUGAGGAUCACCCAUGUGGGUUGCGGUUUCGAGAAGGUAGGUUGCUGG [salish99_SSNG2_r04_040] (Eterna round: R96, puzzle: Same State NG 2) ; field requested: apparent KD of MS2 coat protein
**A:** 111 nM

**Q:** Consider the sequence UUACUCAUGUAAGGAUAUGCAGCCGUUUCGGCUGCAGAAGGUACUAUAAUACAUGAGGAUCACCCAUGUCUUUUUAAUUUUGAC [JL SSNG1 1.27] (Eterna round: R96, puzzle: Same State NG 1) and give its measured apparent KD of MS2 coat protein.
**A:** 39.2 nM

**Q:** Requested field: apparent KD of MS2 coat protein. Item: GUUACAUGAGGAUCACCCAUGUAUGUGUGGGAGUAAGUGUCUUAGGAUAUCUAUGAUUUAAGUUAAGAGAAGGAAGAUUGUUGU [JMF's solution 80] (Eterna round: R96, puzzle: Same State NG 3)
**A:** 114 nM

**Q:** Suppose we examine the sequence CUGCUCGGGUGAGGAUAUGCCGCCGUUUCGGCUGCAGAAGGUGCUACGUUACAUGAGGAUCACCCAUGUCUCUGUUGUUUCGUG [salish99_SSNG1_r04_966] (Eterna round: R96, puzzle: Same State NG 1) ; what apparent KD of MS2 coat protein value has been reported?
**A:** 76 nM

**Q:** What apparent KD of MS2 coat protein value was documented for this sequence, GCUAGAAUUAAUGCUAACAUGAGGAUCACCCAUGUAUGUUGGCAGGAUAUCGUUUGCAAAGCAAACGAGAAGGGCCAUACUAGC [Mat - Same State NG 3 - JL Mod - D25] (Eterna round: R96, puzzle: Same State NG 3) ?
**A:** 21.3 nM

**Q:** # query: apparent KD of MS2 coat protein of entry GGAGCCGGCCUAGGAUAUUUCAUAAAAAGACAUGAGGAUCACCCAUGUAGGCCAGAAGGCCUUGGGAAGAAGGAGGUCGGCUCC [Loop Effect - G29] (Eterna round: R96, puzzle: Same State NG 2)
**A:** 32.9 nM

**Q:** Given the sequence UAACAGUACAAUUUAGAUCUACAUGAGGAUCACCCAUGUACUGAGGAUAUCAGCUCGUGUAGAGCUGAGAAGGCAGAAGAACUA [SSNG3/11-A4] (Eterna round: R96, puzzle: Same State NG 3) , what is its reported apparent KD of MS2 coat protein?
**A:** 173 nM

**Q:** # get_value(readout='apparent KD of MS2 coat protein', item= GUUACAUGAGGAUCACCCAUGUAUGUGUGGGAGUAAGUGUCUUAGGAUAUCUAUGAUUGAAUUUAAGAGAAGGAAGAUUGUUGU [JMF's solution 77] (Eterna round: R96, puzzle: Same State NG 3) )
**A:** 90.6 nM

**Q:** Recorded apparent KD of MS2 coat protein for GGAAACAAGAGAGGAUAUGCAGAGGAUCACCCUGCAGAAGGCUCCCUAGAGAGGAUAUGCAGAGGAUCACCCUGCAGAAGGCUC [pwkr ssNG DX.25] (Eterna round: R96, puzzle: Same State NG 1) , please?
**A:** 24.6 nM

**Q:** Recorded apparent KD of MS2 coat protein for GGAGCCGGCCUAGGAUAUUUCAUAAAAAAACAUGAGGAUCACCCAUGUAGGCCAGAAGGCCUUGGGAAGAAGGAGGUCGGCUCC [Loop Effect - Control] (Eterna round: R96, puzzle: Same State NG 2) , please?
**A:** 21.3 nM

**Q:** Value lookup for apparent KD of MS2 coat protein; key = ACAUGAAAUAGAGGAUAUUUUGUACCUACAUGUGACAUGAGGAUCACCCAUGUGGUAAGUAUGAGAAAGAAGGCUAAGAUAUGU [Equivalence 12 - Jieux - Same State NG 2] (Eterna round: R96, puzzle: Same State NG 2)
**A:** 48.6 nM

Origin of values: the supplement of paper PMC9170038
